Data origin: patent US20210196720A1

# protocol: Single rising oral dose Phase 1 PK, healthy adults (young males unless stated)
# Format: in vivo, human
# assay-setup: male, human, plasma, oral, 10 mg, single 10 mg, Japanese; read-out: AUC0-24
result-type: AUC(0-t) (ng·h/mL)
Unit ng·h/mL implied. Number only.

Query (compound): O=C(Nc1ccc(C[C@@H]2CC[C@H]([C@H](O)c3ccccc3)N2)cc1)[C@@H]1CCc2nccc(=O)n21 ; field requested: AUC(0-t)
31

====

# protocol: Single rising oral dose Phase 1 PK, healthy adults (young males unless stated)
# Format: in vivo, human
# assay-setup: male, human, plasma, oral, 50 mg, single 50 mg, fasted
result-type: AUC(0-inf) (ng·h/mL)
Unit ng·h/mL implied. Number only.

Query (compound): O=C(Nc1ccc(C[C@@H]2CC[C@H]([C@H](O)c3ccccc3)N2)cc1)[C@@H]1CCc2nccc(=O)n21 ; field requested: AUC(0-inf)
551

====

# protocol: Multiple rising dose Phase 1 PK, healthy subjects, day 14 (young males unless stated)
# Format: in vivo, human
# assay-setup: male, human, plasma, oral, 150 mg, 150 mg QD, middle-aged male; read-out: Cmax
result-type: Cmax (ng/mL)
Unit ng/mL implied. Number only.

Query (molecule): O=C(Nc1ccc(C[C@@H]2CC[C@H]([C@H](O)c3ccccc3)N2)cc1)[C@@H]1CCc2nccc(=O)n21 ; field requested: Cmax
293

====

# protocol: clinical
# assay-setup: human, in vivo, 0.03 mg, Cmax
result-type: Cmax

Query (compound): C#C[C@]1(O)CC[C@H]2[C@@H]3CCc4cc(O)ccc4[C@H]3CC[C@@]21C [EE, ethinyl estradiol] ; field requested: Cmax
0.0719 ng/mL

====

# protocol: Multiple rising dose Phase 1 PK, healthy subjects, day 14 (young males unless stated)
# Assay type: in vivo, human
# assay-setup: male, human, plasma, oral, 300 mg, 300 mg QD; read-out: Cmax
result-type: Cmax (ng/mL)
Unit ng/mL implied. Number only.

Query (molecule): O=C(Nc1ccc(C[C@@H]2CC[C@H]([C@H](O)c3ccccc3)N2)cc1)[C@@H]1CCc2nccc(=O)n21 ; field requested: Cmax
733

====

# protocol: Drug interaction: effect of conmed on vibegron PK
# Assay type: in vivo, human
# assay-setup: human, plasma, oral, 100 mg single + ketoconazole 200 mg every 12 hours
result-type: Cmax (ng/mL)
Unit ng/mL implied. Number only.

Query (compound): O=C(Nc1ccc(C[C@@H]2CC[C@H]([C@H](O)c3ccccc3)N2)cc1)[C@@H]1CCc2nccc(=O)n21 ; field requested: Cmax
251

====

# protocol: Multiple rising dose Phase 1 PK, healthy subjects, day 14 (young males unless stated)
# Assay type: in vivo, human
# assay-setup: male, human, plasma, oral, 100 mg, 100 mg QD, Japanese; read-out: Cmax
result-type: Cmax (ng/mL)
Unit ng/mL implied. Number only.

Query (molecule): O=C(Nc1ccc(C[C@@H]2CC[C@H]([C@H](O)c3ccccc3)N2)cc1)[C@@H]1CCc2nccc(=O)n21 [Vibegron] ; field requested: Cmax
180

====

# protocol: Drug interaction: effect of conmed on vibegron PK
# Assay type: in vivo, human
# assay-setup: human, in vivo, oral, 100 mg, vibegron alone; read-out: GM t1/2 (converted)
# Text: However, these interactions are not expected to be clinically significant.
result-type: half-life (h)
Unit h implied. Number only.

Query (molecule): O=C(Nc1ccc(C[C@@H]2CC[C@H]([C@H](O)c3ccccc3)N2)cc1)[C@@H]1CCc2nccc(=O)n21 ; field requested: half-life
75
